Target: Induced myeloid leukemia cell differentiation protein Mcl-1 (Homo sapiens)
Assay: Binding affinity to fluorescent-labeled BH3 peptide from GST tagged MCL1 (172 to 320 residues) (unknown origin) expressed in Escherichia coli BL21 (DE3) incubated for 15 mins by fluorescence polarization-based competitive binding assay

# molecule, Ki (nM)
measured = [
    ("O=C(O)CCCNc1nc(NCCc2ccc(O)cc2)nc(N2CCN(c3nc(NCCC(=O)O)nc(Nc4ccc(Oc5ccccc5)cc4)n3)CC2Cc2ccccc2)n1 (stereo unspecified)", 530),
]

###

Target: Induced myeloid leukemia cell differentiation protein Mcl-1 (Homo sapiens, UniProt Q07820)
Sequence (Q07820 whole entry, the tested form may be a part): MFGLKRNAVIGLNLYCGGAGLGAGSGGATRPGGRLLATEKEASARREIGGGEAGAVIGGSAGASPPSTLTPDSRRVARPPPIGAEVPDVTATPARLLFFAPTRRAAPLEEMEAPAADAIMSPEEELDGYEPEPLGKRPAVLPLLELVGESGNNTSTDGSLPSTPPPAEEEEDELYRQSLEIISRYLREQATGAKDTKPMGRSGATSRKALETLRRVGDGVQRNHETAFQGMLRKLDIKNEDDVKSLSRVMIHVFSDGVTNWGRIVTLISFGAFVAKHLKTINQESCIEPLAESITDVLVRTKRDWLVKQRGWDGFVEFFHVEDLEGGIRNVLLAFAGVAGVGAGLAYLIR
Experiment: Displacement of fluorescein tagged Bak BH3 peptide from MCL-1 (172 to 327 residues) (unknown origin) by fluorescence polarization competition assay
pKi: −log10 of the molar value.
readout: pKi

# smiles record, system under test, readout, endpoint result
data = [
    ("Cc1cc(-c2ccc(C(=O)O)c(OCc3ccccc3)c2)cc(C)c1Cl", "Induced myeloid leukemia cell differentiation protein Mcl-1 (Homo sapiens, UniProt Q07820)", "pKi", 5.54),
]

###

Target: Induced myeloid leukemia cell differentiation protein Mcl-1 (Homo sapiens)
Assay: Inhibition of FITC-labeled BH3 peptide binding to MCL1 (unknown origin)

# smiles record, IC50
data = [
    ("CC(C)(C)OC(=O)N(Cc1ccccc1)c1nc(NCC(=O)O)c2ncn(Cc3cccc4ccccc34)c2n1", "72 µM"),
]

###

Test: Binding affinity to TAR RNA assessed as dissociation constant

# smiles record, quantity unit, Kd
measured = [
    ("NCCCOc1nc(C(=O)O)ccc1NC(=O)c1ccc(NC(=O)c2ccc([N+](=O)[O-])c(OCCCN)n2)c(OCCCN)n1", "µM", 4.1),
]

###

Biological target: Histone acetyltransferase p300/Hypoxia-inducible factor 1-alpha (Homo sapiens, UniProt Q09472+Q16665)
Sequence (Q09472 whole entry): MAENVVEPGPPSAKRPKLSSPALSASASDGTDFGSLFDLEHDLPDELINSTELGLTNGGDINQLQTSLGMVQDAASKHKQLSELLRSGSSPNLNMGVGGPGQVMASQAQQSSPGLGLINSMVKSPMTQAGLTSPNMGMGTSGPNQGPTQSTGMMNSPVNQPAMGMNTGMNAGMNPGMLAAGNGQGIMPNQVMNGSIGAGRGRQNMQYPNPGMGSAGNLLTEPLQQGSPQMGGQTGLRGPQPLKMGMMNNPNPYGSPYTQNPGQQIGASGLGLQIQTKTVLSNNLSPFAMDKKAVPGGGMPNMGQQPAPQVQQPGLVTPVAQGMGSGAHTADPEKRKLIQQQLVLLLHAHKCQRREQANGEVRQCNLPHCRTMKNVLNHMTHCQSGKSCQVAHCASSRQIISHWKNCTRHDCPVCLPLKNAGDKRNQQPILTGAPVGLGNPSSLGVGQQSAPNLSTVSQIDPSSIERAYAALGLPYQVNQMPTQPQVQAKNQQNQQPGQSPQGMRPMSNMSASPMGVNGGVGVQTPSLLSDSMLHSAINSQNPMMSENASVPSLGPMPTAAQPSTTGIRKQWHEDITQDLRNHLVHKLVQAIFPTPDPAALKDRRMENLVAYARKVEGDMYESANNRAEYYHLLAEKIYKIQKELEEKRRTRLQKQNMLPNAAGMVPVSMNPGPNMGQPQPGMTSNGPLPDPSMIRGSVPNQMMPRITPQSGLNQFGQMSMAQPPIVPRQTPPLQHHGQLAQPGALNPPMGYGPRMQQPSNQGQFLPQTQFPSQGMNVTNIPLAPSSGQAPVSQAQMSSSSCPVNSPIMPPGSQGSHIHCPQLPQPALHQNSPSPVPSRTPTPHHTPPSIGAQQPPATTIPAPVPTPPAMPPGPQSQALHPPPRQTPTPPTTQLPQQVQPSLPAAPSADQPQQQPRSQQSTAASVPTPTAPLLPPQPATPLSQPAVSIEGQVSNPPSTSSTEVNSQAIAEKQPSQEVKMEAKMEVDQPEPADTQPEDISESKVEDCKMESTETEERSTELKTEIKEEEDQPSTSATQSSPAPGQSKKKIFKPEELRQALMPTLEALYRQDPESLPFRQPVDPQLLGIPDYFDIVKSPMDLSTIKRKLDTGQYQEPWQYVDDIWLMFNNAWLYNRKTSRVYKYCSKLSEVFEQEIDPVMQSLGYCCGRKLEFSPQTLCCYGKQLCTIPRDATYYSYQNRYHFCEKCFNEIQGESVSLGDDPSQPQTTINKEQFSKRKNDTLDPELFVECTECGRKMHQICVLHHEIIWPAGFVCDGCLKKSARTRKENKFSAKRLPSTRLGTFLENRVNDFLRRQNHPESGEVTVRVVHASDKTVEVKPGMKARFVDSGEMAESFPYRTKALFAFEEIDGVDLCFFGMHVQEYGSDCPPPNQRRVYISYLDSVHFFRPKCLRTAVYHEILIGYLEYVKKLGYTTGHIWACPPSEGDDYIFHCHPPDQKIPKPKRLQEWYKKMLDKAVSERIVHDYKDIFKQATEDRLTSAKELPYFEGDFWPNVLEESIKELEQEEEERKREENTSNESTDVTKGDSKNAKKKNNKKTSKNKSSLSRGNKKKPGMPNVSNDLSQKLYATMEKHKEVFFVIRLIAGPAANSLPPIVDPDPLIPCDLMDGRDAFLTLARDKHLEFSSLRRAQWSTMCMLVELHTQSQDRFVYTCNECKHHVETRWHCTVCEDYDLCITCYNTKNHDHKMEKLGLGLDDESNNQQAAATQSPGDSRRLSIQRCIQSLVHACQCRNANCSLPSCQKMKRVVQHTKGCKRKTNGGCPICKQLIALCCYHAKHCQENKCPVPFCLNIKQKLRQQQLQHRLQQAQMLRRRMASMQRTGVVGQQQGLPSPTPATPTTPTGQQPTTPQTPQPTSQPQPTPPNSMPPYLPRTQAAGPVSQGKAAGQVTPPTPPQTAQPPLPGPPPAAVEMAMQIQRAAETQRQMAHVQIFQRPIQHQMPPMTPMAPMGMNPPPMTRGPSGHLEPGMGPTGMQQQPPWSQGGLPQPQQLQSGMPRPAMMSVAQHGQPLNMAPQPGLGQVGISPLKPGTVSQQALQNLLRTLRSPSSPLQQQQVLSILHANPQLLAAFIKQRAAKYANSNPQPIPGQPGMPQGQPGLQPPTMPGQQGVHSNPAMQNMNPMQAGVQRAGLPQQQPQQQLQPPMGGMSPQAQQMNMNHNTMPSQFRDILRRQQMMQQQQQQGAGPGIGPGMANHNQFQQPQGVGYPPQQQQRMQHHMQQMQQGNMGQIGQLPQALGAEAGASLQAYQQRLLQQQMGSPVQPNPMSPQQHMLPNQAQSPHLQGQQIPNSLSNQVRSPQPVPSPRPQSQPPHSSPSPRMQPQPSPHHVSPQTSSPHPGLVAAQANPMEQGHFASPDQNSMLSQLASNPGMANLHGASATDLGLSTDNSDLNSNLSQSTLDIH
Sequence (Q16665 whole entry): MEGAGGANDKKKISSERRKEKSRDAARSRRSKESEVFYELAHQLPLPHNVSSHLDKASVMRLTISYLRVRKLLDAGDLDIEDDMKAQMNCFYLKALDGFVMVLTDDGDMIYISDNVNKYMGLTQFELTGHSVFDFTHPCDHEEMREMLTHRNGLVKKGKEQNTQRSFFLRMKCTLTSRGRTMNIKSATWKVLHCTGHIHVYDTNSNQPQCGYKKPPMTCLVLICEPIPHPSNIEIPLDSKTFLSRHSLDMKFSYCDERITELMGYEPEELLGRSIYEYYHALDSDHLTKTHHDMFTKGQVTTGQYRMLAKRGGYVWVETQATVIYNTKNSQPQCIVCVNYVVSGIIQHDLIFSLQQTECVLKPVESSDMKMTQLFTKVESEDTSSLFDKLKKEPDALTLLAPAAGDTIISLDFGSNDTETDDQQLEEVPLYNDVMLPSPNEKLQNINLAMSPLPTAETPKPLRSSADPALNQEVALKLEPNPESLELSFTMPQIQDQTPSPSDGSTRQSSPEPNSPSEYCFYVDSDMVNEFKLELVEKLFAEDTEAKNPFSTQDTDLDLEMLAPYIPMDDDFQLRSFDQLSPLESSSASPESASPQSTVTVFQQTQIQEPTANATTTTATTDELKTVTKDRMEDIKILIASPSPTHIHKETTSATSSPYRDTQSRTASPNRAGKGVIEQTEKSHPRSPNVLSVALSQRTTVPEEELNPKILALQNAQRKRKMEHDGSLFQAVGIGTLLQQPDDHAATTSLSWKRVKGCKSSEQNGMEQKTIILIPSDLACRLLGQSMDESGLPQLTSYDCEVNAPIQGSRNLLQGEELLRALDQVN
Test: Inhibition of hypoxia-induced HIF1alpha/P300 interaction (unknown origin) incubated for 30 mins for fluorescence anisotropy competition assay
pIC50: −log10 of the molar value.

# smiles record, pIC50
data = [
    ("CC(C)COc1cc(C(=O)Nc2ccc(C(=O)O)cc2OC(C)C)ccc1NC(=O)c1ccc([N+](=O)[O-])c(OCC(C)C)c1", 5.04),
]

###

Tested on: N2a
Test: Cytotoxicity against mouse N2a cells
Format: functional, cell-based
pIC50: −log10 of the molar value.

# smiles record, pIC50
measured = [
    ("NCCCOc1nc(C(=O)O)ccc1NC(=O)c1ccc(NC(=O)c2ccc([N+](=O)[O-])c(OCc3ccccc3)n2)c(OCCCN)n1", 5.85),
    ("CC(C)COc1nc(C(=O)Nc2ccc(C(=O)Nc3ccc(C(=O)Nc4ccc(C(=O)O)nc4OCC(=O)O)nc3OCC(=O)O)nc2OCc2ccccc2)ccc1[N+](=O)[O-]", 5.60),
]

###

Test system: SJSA-1
Assay: cells
Settings: Homo sapiens
readout: IC50

# smiles record, readout, endpoint result
rows = [
    ("CC(C)[C@@H](CS(=O)(=O)C(C)C)N1C(=O)[C@@](C)(CC(=O)O)C[C@H](c2cccc(Cl)c2)[C@H]1c1ccc(Cl)cc1", "IC50", "0.025 µM"),
]

###

System: Human immunodeficiency virus 1
Assay: Antiviral activity against HIV-1 pseudotyped virus expressing HXB-2 proteins infected in human TZM-bl cells assessed as inhibition of viral entry by luciferase based analysis
Assay type: functional, organism-based
Conditions: Human immunodeficiency virus 1, TZM-bl
readout: IC50

# smiles record, endpoint result
records = [
    ("NCCCOc1nc(C(=O)O)ccc1NC(=O)c1ccc(NC(=O)c2ccc([N+](=O)[O-])c(OCCCN)n2)c(OCCCN)n1", "25 µM"),
]

###

Assay: Inhibition of Mcl-1/NoxaB (unknown origin) protein-protein interaction
Parameters: species or system Homo sapiens

# compound, IC50
rows = [
    ("CC(C)Oc1cc(NC(=O)[C@H](Cc2ccccc2)NC(=O)c2ccc(N)c(OCc3ccccc3)c2)ccc1C(=O)NCC(=O)O", "> 100 µM"),
    ("CCC(C)CN(C(=O)c1ccc(N(Cc2ccc3ccccc3c2)C(=O)c2ccc(NCC(C)C)cc2)cc1)c1ccc(C(=O)N[C@H](C(=O)O)[C@H](C)CC)cc1 (some centres not stated)", "24 µM"),
]

###

Target: Tumour suppressor p53/oncoprotein Mdm2 (Homo sapiens)
Sequence (P04637 whole entry): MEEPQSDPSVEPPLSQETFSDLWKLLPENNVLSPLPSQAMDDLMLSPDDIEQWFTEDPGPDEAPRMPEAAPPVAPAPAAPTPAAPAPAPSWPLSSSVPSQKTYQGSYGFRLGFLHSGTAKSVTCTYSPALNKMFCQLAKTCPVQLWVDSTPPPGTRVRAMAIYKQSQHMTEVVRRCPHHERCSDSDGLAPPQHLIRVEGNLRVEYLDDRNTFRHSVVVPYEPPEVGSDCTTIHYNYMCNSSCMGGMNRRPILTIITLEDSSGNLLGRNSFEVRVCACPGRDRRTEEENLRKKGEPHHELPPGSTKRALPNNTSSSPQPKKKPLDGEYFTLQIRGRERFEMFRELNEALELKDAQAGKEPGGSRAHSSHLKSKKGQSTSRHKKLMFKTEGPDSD
Sequence (Q00987 whole entry): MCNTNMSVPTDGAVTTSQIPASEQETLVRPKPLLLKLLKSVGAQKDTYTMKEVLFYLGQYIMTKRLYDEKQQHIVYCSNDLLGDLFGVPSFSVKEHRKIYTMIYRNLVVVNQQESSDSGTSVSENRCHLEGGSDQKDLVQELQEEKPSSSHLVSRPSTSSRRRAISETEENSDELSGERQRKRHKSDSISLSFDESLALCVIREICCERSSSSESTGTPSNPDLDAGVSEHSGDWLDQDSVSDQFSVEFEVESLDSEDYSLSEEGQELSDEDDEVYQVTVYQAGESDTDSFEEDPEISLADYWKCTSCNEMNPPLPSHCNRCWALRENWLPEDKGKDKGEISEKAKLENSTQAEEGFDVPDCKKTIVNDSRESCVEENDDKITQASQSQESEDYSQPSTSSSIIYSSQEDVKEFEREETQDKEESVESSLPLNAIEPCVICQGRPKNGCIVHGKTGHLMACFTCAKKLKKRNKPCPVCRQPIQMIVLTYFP
Assay: Inhibition of HDM2-p53 (unknown origin) protein-protein interaction
pIC50: −log10 of the molar value.
Below, each entry is listed with its recorded pIC50.
readout: pIC50

# molecule, endpoint result
records = [
    ("CC(C)Oc1cc(NC(=O)[C@H](Cc2ccccc2)NC(=O)c2ccc(N)c(OCc3ccccc3)c2)ccc1C(=O)NCC(=O)O", 4.92),
    ("CC(C)C[C@H](NC(=O)c1ccc(NC(=O)[C@@H](N)Cc2ccccc2)c(OCCc2c[nH]c3ccccc23)c1)C(=O)O", 4.82),
    ("CCC(C)CN(C(=O)c1ccc(N(Cc2ccc3ccccc3c2)C(=O)c2ccc(NCC(C)C)cc2)cc1)c1ccc(C(=O)N[C@H](C(=O)O)[C@H](C)CC)cc1 (stereo partly drawn)", 5.03),
]
